tested_system: hGLP1R (Homo sapiens, UniProt P43220)
Construct: expressed in transfected cells; host or cells: HEK-293 cells carrying a CRE-luciferase reporter gene
Sequence (P43220 24-463): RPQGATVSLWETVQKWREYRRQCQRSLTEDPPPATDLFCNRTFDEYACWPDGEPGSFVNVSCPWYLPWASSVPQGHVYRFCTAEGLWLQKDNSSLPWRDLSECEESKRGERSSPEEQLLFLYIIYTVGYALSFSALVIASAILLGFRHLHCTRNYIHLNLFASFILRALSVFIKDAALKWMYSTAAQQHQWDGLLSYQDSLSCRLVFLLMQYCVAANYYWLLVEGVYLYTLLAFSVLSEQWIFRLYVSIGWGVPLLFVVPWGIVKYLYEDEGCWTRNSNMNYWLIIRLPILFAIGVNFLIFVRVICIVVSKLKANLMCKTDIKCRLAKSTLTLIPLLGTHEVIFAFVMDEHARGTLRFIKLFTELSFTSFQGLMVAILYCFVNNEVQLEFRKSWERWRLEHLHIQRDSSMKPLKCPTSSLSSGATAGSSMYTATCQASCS
experiment_description: hGLP1R CreLuc reporter gene assay in 0.5% and 100% plasma
Format: cell-based
condition_info: CreLuc reporter gene assay, 0.5% human plasma; read-out: hGLP1R 0.5% hP
Description: Example 1: hGLPR/hGIPR/hNPY2R CreLuc Assay in 0.5% and 100% Plasma CHO and HEK-293 recombinant cell lines express a luciferase reporter gene under control of the cAMP responsive element (CRE). […] Following incubation, assay plates are equilibrated to room temperature, followed by addition of 25 μl of Bright-GIo™ Luciferase reagent, incubation at room temperature for 10 minutes and analysis of luminescence (Envision Reader). […]
pEC50: −log10 of the molar value. Starred links: 1 amine or outer side, 2 acyl side, 3 side chain; linkers in the order of their positions; H or OH if unused. Positions of bridges follow the written chain, without caps; N, C: chain ends. Non-standard residues stand in square brackets, D forms with d. Groups on a side chain read outwards from the residue. Chains are numbered I, II in the order given. *: point of attachment. C20 diacid = O=C(O)CCCCCCCCCCCCCCCCCCC(=O)*; C18 diacid = O=C(O)CCCCCCCCCCCCCCCCC(=O)*; γGlu = O=C(O)[C@H](CCC(=O)[*:2])N[*:1]; εLys = N[C@@H](CCCCN[*:1])C(=O)[*:2]; Tle = CC(C)(C)[C@H](N)C(=O)O; AEEA = NCCOCCOCC(=O)O; Aib = CC(C)(N)C(=O)O
Quick reference: pEC50 of the listed items.

>  <substance>
H-Y[Aib]EGTFTSDYSI[Aib]LEKQAQ[Aib]AFVEWLIK([εLys-γGlu-γGlu-γGlu-γGlu-γGlu-γGlu-C20 diacid])GGPSSGASLRHYYNWLTRQR[Tle]-NH2 [Compound 191]

>  <pEC50>
9.77

$$$$
>  <substance>
H-Y[Aib]EGTFTSDYSI[Aib]LEKQAQ[Aib]AFVEWLIK([εLys-γGlu-γGlu-γGlu-γGlu-γGlu-C20 diacid])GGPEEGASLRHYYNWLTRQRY-NH2 [Compound 230]

>  <pEC50>
9.54

$$$$
>  <substance>
I: H-Y[Aib]EGTFTSDYSI[Aib]LEKQAQ[Aib]AFVQWLIKGGPEEGASLRHYYNWLTRQRY-NH2 / II: {C18 diacid}-EEEEE[εLys] (amide I:28-II:C) [Compound 155]

>  <pEC50>
9.82

$$$$
>  <substance>
H-Y[Aib]EGTFTSDYSI[Aib]LEKQAQ[Aib]AFVQWLIK([AEEA-AEEA-Glu-Glu-Glu-C18 diacid])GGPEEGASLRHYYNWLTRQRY-NH2 [Compound 188]

>  <pEC50>
9.82

$$$$
>  <substance>
H-Y[Aib]EGTFTSDYSI[Aib]LEKQAQ[Aib]AFVQWLIK([εLys-γGlu-γGlu-γGlu-γGlu-γGlu-C20 diacid])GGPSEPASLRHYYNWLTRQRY-NH2 [Compound 169]

>  <pEC50>
9.89

$$$$
